experiment: Mean residence time in C57BL/6J mouse at 1 mg/kg, po cassette dosing; assay type: ADME, organism-based; parameters: dose 1 mg/kg, route oral; conditions: in vivo
Measure: MRT

Which MRT value is on record for COc1cc(N2CCN(C(=O)Cn3cnc4cc(C(F)(F)F)ccc43)C[C@@H]2C)ccc1-c1cnc(C)o1 ? 3.26 h

---

# maps each entry to its microsomal CLint
assay: Metabolic stability in rat hepatic microsomes by LC/MS/MS analysis; assay type: ADME, Liver, Microsome; settings: read-out: CLH
Expressed in µL/min/mg, but write only the number.

Known microsomal CLint results, listed for orientation:
| Structure notation | Unit | microsomal CLint |
| --- | --- | --- |
| COc1cc(N2CCN(C(=O)Cn3cnc4ccccc43)CC2)ccc1-c1cnc(C)o1 | µL/min/mg | 22 |
| COc1cc(N2CCN(C(=O)Cn3cnc4cc(C(F)(F)F)ccc43)CC2)ccc1-c1cnc(C)o1 | µL/min/mg | 66 |
| COc1cc(N2CCN(C(=O)Cn3ncc4ccccc43)CC2)ccc1-c1cnc(C)o1 | µL/min/mg | 77 |

# input molecule: COc1cc(N2CCN(C(=O)Cn3cnc4ccc(C(F)(F)F)cc43)C[C@@H]2C)ccc1-c1cnc(C)o1 ; wanted: its microsomal CLint 50

Now give it for COc1cc(N2CCN(C(=O)N[C@@H](C)c3cccc4ccccc34)CC2)ccc1-n1cc(C)nn1 too. 230

Moving on to the next molecule: COc1cc(C2CCN(C(=O)N[C@@H](C)c3cccc4ccccc34)CC2)ccc1-c1cnc(C)o1 170

Same lookup for COc1cc(N2CCN(C(=O)Cn3ccc4ccccc43)CC2)ccc1-c1cnc(C)o1 , please. 140

What do you have for COc1cc(N2CCN(C(=O)N[C@@H](C)c3cccc4ccccc34)CC2)ccc1-c1cnn(C)c1 ? 150

And COc1cc(N2CCN(C(=O)N[C@@H](C)c3cccc4ccccc34)CC2)ccc1-n1cnc(C)c1 ? 150

---

microsomal CLint values by entry
test: Metabolic stability in rat hepatic microsomes by LC/MS/MS analysis; format: ADME, Liver, Microsome; details: read-out: CLH
Just the number in µL/min/mg, nothing appended.

// known answers, use as guide
| Structure notation | microsomal CLint / µL/min/mg |
| --- | --- |
| COc1cc(N2CCN(C(=O)Cn3nnc4ccccc43)CC2)ccc1-c1cnc(C)o1 | 27 |
| COc1cc(N2CCCN(C(=O)N[C@@H](C)c3cccc4ccccc34)CC2)ccc1-c1cnc(C)o1 | 240 |
| COc1cc(N2CCN(C(=O)CN3CCc4ccccc43)CC2)ccc1-c1cnc(C)o1 | 160 |
| COc1cc(N2CCN(C(=O)N[C@@H](C)c3cccc4ccccc34)CC2)ccc1-n1cnc(C)n1 | 110 |

// next entry
Record request: microsomal CLint value, item COc1cc(N2CCN(C(=O)NCc3cccc4ccccc34)CC2)ccc1-c1cnc(C)o1 160

---

test: Cmax in C57BL/6J mouse at 1 mg/kg, po cassette dosing; type: ADME, organism-based; design: dose 1 mg/kg, route oral; conditions: in vivo
Measure: Cmax

Name the reported Cmax value associated with the compound COc1cc(N2CCN(C(=O)Cn3cnc4cc(C(F)(F)F)ccc43)C[C@@H]2C)ccc1-c1cnc(C)o1 773 ng/mL

---

Measured Activity, listed per entry for reference.
system: neuronal; assay: Inhibition of amyloid beta40 production in rat neuronal cells assessed as inflection point after 3 days by ELISA; assay type: cell-based
Kindly answer with a numeric value in nM, unit omitted.

| Structure notation | Unit | Activity |
| --- | --- | --- |
| COc1cc(N2CCN(C(=O)Cn3cnc4ccc(C(F)(F)F)cc43)C[C@@H]2C)ccc1-c1cnc(C)o1 | nM | 30 |
| COc1cc(N2CCCN(C(=O)N[C@@H](C)c3cccc4ccccc34)CC2)ccc1-c1cnc(C)o1 | nM | 38 |
| COc1cc(N2CCN(C(=O)Cn3cnc4ccccc43)CC2)ccc1-c1cnc(C)o1 | nM | 93 |
| COc1cc(N2CCN(C(=O)Cn3ccc4ccccc43)CC2)ccc1-c1cnc(C)o1 | nM | 180 |
| COc1cc(N2CCN(C(=O)Cn3nnc4ccccc43)CC2)ccc1-c1cnc(C)o1 | nM | 210 |
| COc1cc(C2CCN(C(=O)N[C@@H](C)c3cccc4ccccc34)CC2)ccc1-c1cnc(C)o1 | nM | 260 |
| COc1cc(N2CCN(C(=O)N[C@@H](C)c3cccc4ccccc34)CC2)ccc1-n1cnc(C)n1 | nM | 170 |
| COc1cc(N2CCN(C(=O)N[C@@H](C)c3cccc4ccccc34)C[C@@H]2C)ccc1-c1cnc(C)o1 | nM | 21 |

Please state recorded Activity (tested on neuronal) of COc1cc(N2CCN(C(=O)Cn3cnc4ccc(C(F)(F)F)cc43)CC2)ccc1-c1cnc(C)o1 65

# iterate: COc1cc(N2CCN(C(=O)N[C@@H](C)c3cccc4ccccc34)CC2)ccc1-c1cnc(C)o1 34

Entry COc1cc(N2CCN(C(=O)N[C@@H](C)c3cccc4ccccc34)C[C@H]2C)ccc1-c1cnc(C)o1 please 56

What do we get for COc1cc(N2CCN(C(=O)CN3Cc4ccccc4C3)CC2)ccc1-c1cnc(C)o1 ? 620

Here is the next compound: COc1cc(N2CCN(C(=O)NCc3cccc4ccccc34)CC2)ccc1-c1cnc(C)o1 50

Can you handle COc1cc(N2CCN(C(=O)N[C@@H](C)c3cccc4ccccc34)CC2)ccc1-n1cc(C)nn1 next? 450

Repeat with COc1cc(N2CCN(C(=O)Cn3ncc4ccccc43)CC2)ccc1-c1cnc(C)o1 170

---

test system: neuronal; experiment: Inhibition of amyloid beta40 production in rat neuronal cells assessed as maximal inhibition at 3 uM after 3 days by ELISA; type: cell-based
Note to self: values exactly at 60% are Satisfied. So inhibition at or above 60% is Satisfied, below is Not satisfied.

| Structure notation | System | Class |
| --- | --- | --- |
| COc1cc(N2CCN(C(=O)Cn3ccc4ccccc43)CC2)ccc1-c1cnc(C)o1 | neuronal | Not satisfied |
| COc1cc(N2CCN(C(=O)Cn3nnc4ccccc43)CC2)ccc1-c1cnc(C)o1 | neuronal | Not satisfied |
| COc1cc(N2CCN(C(=O)Cn3cnc4cccc(C(F)(F)F)c43)CC2)ccc1-c1cnc(C)o1 | neuronal | Not satisfied |
| COc1cc(N2CCN(C(=O)N[C@@H](C)c3cccc4ccccc34)C[C@@H]2C)ccc1-c1cnc(C)o1 | neuronal | Satisfied |
| COc1cc(N2CCN(C(=O)CN3CCc4ccccc43)CC2)ccc1-c1cnc(C)o1 | neuronal | Not satisfied |

Entry COc1cc(N2CCN(C(=O)Cn3cnc4ccc(C(F)(F)F)cc43)CC2)ccc1-c1cnc(C)o1 : is its inhibition no less than 60%? Not satisfied

Param item: COc1cc(N2CCN(C(=O)N[C@@H](C)c3cccc4ccccc34)C[C@H]2C)ccc1-c1cnc(C)o1 Satisfied

Can you handle COc1cc(N2CCN(C(=O)N[C@@H](C)c3cccc4ccccc34)CC2)ccc1-n1cc(C)nn1 next? Not satisfied

And the next one, COc1cc(N2CCN(C(=O)Cn3cnc4ccc(C(F)(F)F)cc43)C[C@@H]2C)ccc1-c1cnc(C)o1 ? Not satisfied

Would you mind doing COc1cc(N2CCCN(C(=O)N[C@@H](C)c3cccc4ccccc34)CC2)ccc1-c1cnc(C)o1 as well? Not satisfied

Try the compound COc1cc(N2CCN(C(=O)CN3Cc4ccccc4C3)CC2)ccc1-c1cnc(C)o1 Not satisfied

---

assay: Metabolic stability in rat hepatic microsomes by LC/MS/MS analysis; type: ADME, Liver, Microsome; conditions: read-out: CLH
Classification field: enter Satisfied for microsomal CLint values not below 40 µL/min/mg, Not satisfied for values below it.

Past entries and their recorded results:
| Structure notation | Class |
| --- | --- |
| COc1cc(N2CCN(C(=O)Cn3cnc4ccc(C(F)(F)F)cc43)CC2)ccc1-c1cnc(C)o1 | Not satisfied |
| COc1cc(N2CCN(C(=O)Cn3cnc4cc(C(F)(F)F)ccc43)C[C@@H]2C)ccc1-c1cnc(C)o1 | Satisfied |
| COc1cc(N2CCN(C(=O)N[C@@H](C)c3cccc4ccccc34)C[C@H]2C)ccc1-c1cnc(C)o1 | Satisfied |
| COc1cc(N2CCN(C(=O)N[C@@H](C)c3cccc4ccccc34)C[C@@H]2C)ccc1-c1cnc(C)o1 | Satisfied |
| COc1cc(N2CCN(C(=O)CN3Cc4ccccc4C3)CC2)ccc1-c1cnc(C)o1 | Satisfied |

Would you say COc1cc(N2CCN(C(=O)Cn3cnc4c(C(F)(F)F)cccc43)CC2)ccc1-c1cnc(C)o1 shows microsomal CLint at minimum 40 µL/min/mg? Not satisfied

Same thing, different compound: COc1cc(N2CCN(C(=O)Cn3cnc4cccc(C(F)(F)F)c43)CC2)ccc1-c1cnc(C)o1 Not satisfied

Also check COc1cc(N2CCN(C(=O)N[C@@H](C)c3cccc4ccccc34)CC2)ccc1-c1cnc(C)o1 Satisfied

Cited source: ChEMBL document CHEMBL3400145
